Biological target: T1, Human ROR1-ECD-his (Acro Biosystems RO1-H522y) (human, UniProt Q01973 30-406)
T1 construct: extracellular domain; bought protein; also called hROR1-ECD-his; hu-ROR1-ECD-his
T1 sequence (Q01973 30-406): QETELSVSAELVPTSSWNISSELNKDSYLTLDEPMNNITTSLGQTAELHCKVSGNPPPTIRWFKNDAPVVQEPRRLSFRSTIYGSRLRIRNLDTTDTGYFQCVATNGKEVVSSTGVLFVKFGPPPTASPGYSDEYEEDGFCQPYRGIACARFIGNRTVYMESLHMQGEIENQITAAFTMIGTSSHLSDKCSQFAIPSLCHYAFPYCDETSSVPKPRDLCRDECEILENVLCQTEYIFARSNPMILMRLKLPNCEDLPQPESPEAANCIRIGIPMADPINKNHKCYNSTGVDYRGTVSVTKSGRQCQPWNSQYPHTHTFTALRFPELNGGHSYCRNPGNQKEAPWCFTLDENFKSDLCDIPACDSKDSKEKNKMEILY
Test: BLI in-tandem, row = 1st Ab; competitor (2nd Ab): PR007424
recorded.endpoint: Inhibition (%)
Supply the numeric figure in %, leaving out any unit text.

PR005338 (antibody, human IgG1, V domains shown, HCAb (heavy chain-only, human IgG1 Fc), no light chain) VH: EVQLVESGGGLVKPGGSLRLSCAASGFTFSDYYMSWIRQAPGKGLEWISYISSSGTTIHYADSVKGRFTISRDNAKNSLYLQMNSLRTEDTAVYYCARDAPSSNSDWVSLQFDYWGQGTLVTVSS
102

Request: For PR007424 (antibody, V domains shown, bivalent form (HCAb) variant of PR005340, no light chain) VH: EVQLVESGGGLVKPGGSLRLSCAASGFTFSDYYMSWIRQAPGKGLEWISYIDSSGRPLAYADSVKGRFTISRDNAKNSLYLQMNSLRAEDTAIYYCARDMPSSSSDWVSLQFDYWGQGTLVTVSS , what is its reported Inhibition (%)?
Result: 107
